Each item that follows carries a reported %Inh.
Tested on: CLK1;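 further: KINOMEscan kinase panel screen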
settings: concentration: 1 μM, replicates: in singlicate; n = 1
Write the value in % as a bare number.

molecule: COc1cccc(NC(=O)NC2CCN(c3ccnc(Nc4cc(OC)c(OC)c(OC)c4)n3)C2)c1 (centres unmarked)
metric.name: %Inh
result.number: 12

**Query** Notebook entry, CLK1 assay: %Inh of O=C(Nc1n[nH]c2cc(-c3ccoc3)ccc12)C1CC1 = ?
**Result** 23

**Query** Please do the same for CN(C)Cc1ccc(-c2ccc3c(Nc4ccc(Oc5ccccn5)cc4)ccnc3c2)o1 as well.
**Result** 0

**Query** Please do the same for COc1ccc(Nc2nccc(N3CCC(NC(=O)Nc4cccc(OC)c4)C3)n2)cc1 (centres unmarked) as well.
**Result** 26
